- Test system: HT29 colon
- measurement-description: NCI tumour cell line growth inhibition, 48 h
result-type: TGI

Completed entries (count: 3):
CCCCOC(=O)NC(=O)c1cn(CCSCCOC(=O)NCCCCCCNC(=O)OCCSCCn2cc(C(=O)NC(=O)OCCCC)c(=O)[nH]c2=O)c(=O)[nH]c1=O ... > 100 µM
Cc1ccc2c(O)c(O)cc(NC(C)CCCN)c2n1 (stereo not given) ... > 72.4 µM
CSc1ccc2c3c(n(C[C@H](O)CO)c(=O)c2c1)-c1ccccc1C3=O ... 6.38 µM

Query: Fill blank: measured TGI of the molecule O=C(O)c1cc(N=Cc2ccccc2O)cc(C(=O)O)c1 is ____.
Result: > 100 µM

Query: Fill blank: measured TGI of the molecule c1ccc(-c2nc(-c3ccccc3)c(-c3ccccc3)[nH]2)cc1 is ____.
Result: > 100 µM

Query: Fill blank: measured TGI of the molecule CN(C)CCSC(=Nc1ccccc1)N1CCCCC1 is ____.
Result: 33 µM

---

- System: NCI-H522 lung
- measurement-description: NCI tumour cell line growth inhibition, 48 h
Parameter threshold = 9 µM. Response is True when TGI meets or exceeds it, else False.

Reference set, count: 10
Cc1nc2ccc(S(=O)(=O)O)cc2c(=O)n1-c1ccc(C(=O)NN2C(=O)C(Cl)C2c2ccccc2O)cc1 (stereo not given) ... True
c1ccc2c(c1)CCc1cc3cc4c(nc3nc1-2)-c1ccccc1CC4 ... True
C=CCNC(=O)NC1=CSC2=NC(=O)C3(NN12)c1ccccc1-c1ccccc13 ... True
O=[N+]([O-])c1ccc(N=Nc2c(O)c(S(=O)(=O)O)cc3cc(S(=O)(=O)O)ccc23)cc1 ... True
C/C(=N\N=C(/[Se])N1CC2CCC(CC2)C1)c1ccccn1 ... False
Fc1ccc(C2SCc3nc4ccccc4n32)cc1 (stereo not given) ... True
OC1(c2cc3ccccc3s2)CCCCC1 ... True
C=CCC(N[C@H](CO)c1ccccc1)c1cn(C(=O)OCC)c2ccccc12 (stereo not given in full) ... True
CN(C)CCSC(=Nc1ccccc1)N1CCCCC1 ... True
Cn1cc(-c2cnc3ccc4ccc(CS(=O)(=O)NCc5ccccn5)cc4c(=O)c3c2)cn1 ... True

Query: Could you verify whether the entry O=C(OCC1CO1)c1cccs1 (stereo not given) shows TGI of no less than 9 µM?
Result: True

Query: Could you verify whether the entry N#Cc1c(N2CCCC2)ncn(Cc2ccccc2)c1=O shows TGI of no less than 9 µM?
Result: True

Query: Could you verify whether the entry Cc1cccc(NC(=O)C(=O)C(C(=O)c2ccccc2F)C2OC(=O)c3ccccc32)c1Cl (stereo not given) shows TGI of no less than 9 µM?
Result: True

Query: Could you verify whether the entry CN1CCN(Cc2ccc(NC(=O)c3ccc(C#Cc4c(N)ncc5ccc(F)cc45)cc3)cc2C(F)(F)F)CC1 shows TGI of no less than 9 µM?
Result: False

Query: Could you verify whether the entry Fc1ccc(N=NN2CCCC2)cc1 shows TGI of no less than 9 µM?
Result: True

Query: Could you verify whether the entry C=C1C(=O)OCC2C(C(=O)O)=CC3C(C)C(C)=CC123 (stereo not given) shows TGI of no less than 9 µM?
Result: False

Query: Could you verify whether the entry C=CC(=O)N[C@H]1CCOC[C@H]1Nc1ncc2cc(-c3c(Cl)c(OC)cc(OC)c3Cl)ccc2n1 shows TGI of no less than 9 µM?
Result: True

Query: Could you verify whether the entry COC(=O)/C=C/c1cc(O)c2c(c1)[C@H](C(=O)OC)[C@@H](c1ccc(O)c(O)c1)O2 shows TGI of no less than 9 µM?
Result: False

Query: Could you verify whether the entry CCOC(=O)/C=C/C(C(=O)/C=C/c1ccc(O)c(OC)c1)=C(O)\C=C\c1ccc(O)c(OC)c1 shows TGI of no less than 9 µM?
Result: True
